# protocol: Phase 1 pharmacokinetic study of inhaled cromolyn, plasma
# Format: in vivo, human
# recorded_conditions: human, inhaled or intranasal, 17.1 mg, read-out: apparent t1/2 range
measurement_type: half-life

• O=C(O)c1cc(=O)c2c(OCC(O)COc3cccc4oc(C(=O)O)cc(=O)c34)cccc2o1 = 0.6 to 3.7 h

----------
# protocol: Phase 1 pharmacokinetic study of inhaled cromolyn, plasma
# Assay type: in vivo, human
# recorded_conditions: human, inhaled, 17.1 mg, Max
measurement_type: Tmax (h)

* O=C(O)c1cc(=O)c2c(OCC(O)COc3cccc4oc(C(=O)O)cc(=O)c34)cccc2o1 | 1

----------
# protocol: Phase 1 pharmacokinetic study of inhaled cromolyn, plasma
# Format: in vivo, human
# recorded_conditions: human, inhaled, 34.2 mg, median
measurement_type: Tmax (min)

• O=C(O)c1cc(=O)c2c(OCC(O)COc3cccc4oc(C(=O)O)cc(=O)c34)cccc2o1 = 13.8

----------
# protocol: Phase 1 pharmacokinetic study of inhaled cromolyn, plasma
# Type: in vivo, human
# recorded_conditions: human, inhaled or intranasal, 17.1 mg, single (17.1 mg) dose inhalation, range, read-out: AUC0-inf range
measurement_type: AUC(0-inf)

- O=C(O)c1cc(=O)c2c(OCC(O)COc3cccc4oc(C(=O)O)cc(=O)c34)cccc2o1: 93.3 to 287 ng·h/mL

----------
# protocol: Phase 1 pharmacokinetic study of inhaled cromolyn, plasma
# Type: in vivo, human
# recorded_conditions: human, inhaled or intranasal, 17.1 mg, 17.1 mg single inhaled dose, mean
measurement_type: Tmax (min)

• O=C(O)c1cc(=O)c2c(OCC(O)COc3cccc4oc(C(=O)O)cc(=O)c34)cccc2o1 = 22.8

----------
# protocol: Phase 1 pharmacokinetic study of inhaled cromolyn, plasma
# Assay type: in vivo, human
# recorded_conditions: human, inhaled or intranasal, 17.1 mg, single dose (17.1 mg) inhalation, range, read-out: Cmax range
measurement_type: Cmax

• O=C(O)c1cc(=O)c2c(OCC(O)COc3cccc4oc(C(=O)O)cc(=O)c34)cccc2o1 [cromolyn] = 14 to 133 ng/mL

----------
# protocol: Phase 1 pharmacokinetic study of inhaled cromolyn, plasma
# Type: in vivo, human
# recorded_conditions: human, inhaled, 17.1 mg, median
measurement_type: Vd/F (L)

- O=C(O)c1cc(=O)c2c(OCC(O)COc3cccc4oc(C(=O)O)cc(=O)c34)cccc2o1: 134

Source listed as patent US20230248646A1.
